# Protocol Text: binders of probe aFSTL3 on microarray, primary screen, stem cell growth factor project, biochemical, small-molecule microarray, fluorescence 635/667 (AID 1064);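 note: measures binding of the biotinylated anti-FSTL3 antibody to printed compounds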
# Test Settings: higher = more signal
Task for the reader: assign each of the following compounds its reported composite z-score.
Answers are plain numbers.

Recorded results for 3 compounds are shown here.
CON=C(C)CCN1CCCc2nc(C)c(C)cc21; -0.411
CO[C@@H]1COC(=O)[C@H](CCSC)NC(=O)CC=C[C@@H](C)COC(=O)[C@@H]2CCCN2C(=O)CC=C[C@H]1C; -0.313
CCCNC(=O)OC[C@H]1O[C@H](CCON=C2C[C@@H](O)[C@@H](O)[C@@H]3[C@@H]4C(=O)N(CC)C(=O)[C@@H]4CC[C@@H]23)C=C[C@@H]1Oc1ccc(OC)cc1; -0.465

Exercise: Please give the measured composite z-score for this compound: O=C1C2=CC[C@H]3C(=O)N(Cc4ccccc4)C(=O)[C@H]3[C@H]2[C@H](O)[C@@H]2O[C@H]12
Solution: -0.291

* * *

# Measured On: Neurogenic locus notch homolog protein 3 (Homo sapiens)
# Protocol Text: NOTCH3 binders on small-molecule microarray, primary screen, biochemical, 635/667 nm fluorescence (AID 1096)
# Test Settings: NOTCH3 binding, 635 nm fluorescence, higher = more signal
composite z-score vs 0.5: at or above is yes (1), below is no (0).

Exercise: Quick check: does CCN1C(=O)[C@H]2[C@@H]3C(=CC[C@H]2C1=O)C(=O)[C@H]1O[C@H]1[C@H]3O have composite z-score greater than or equal to 0.5?
Solution: yes (1)

Exercise: Determine whether measured composite z-score meets or exceeds 0.5 for COC(=O)CC=C[C@@H](C)[C@@H](C=NOC(C)CN1CCCc2nc(C)c(C)cc21)NS(=O)(=O)c1ccc(C)cc1 (stereo not given in full)
Solution: yes (1)

Exercise: // inclusive: composite z-score at least 0.5? input: CON=C(C)CCN1CCc2nc(-c3ccccc3)c(-c3ccccc3)cc2C1
Solution: yes (1)

Exercise: Given COC(=O)[C@H](C)NC(=O)CCC1CC(OC(=O)NCc2cccc3ccccc23)CC2(CCCC(COC(=O)NCCCN3CCCC3=O)O2)O1 (stereo not given in full) , state whether its composite z-score is at least 0.5.
Solution: yes (1)

Exercise: For this compound, is measured composite z-score 0.5 or higher? CC(C)=CCCC(C)=CCON=C1C[C@@H](O)[C@@H](O)[C@@H]2[C@@H]3C(=O)N(C4CCCCC4)C(=O)[C@@H]3CC[C@H]12
Solution: yes (1)

Exercise: # bool: composite z-score of C#CCCCON=C1C[C@@H](O)[C@@H](O)[C@@H]2[C@@H]3C(=O)N(C4CCCCC4)C(=O)[C@@H]3CC[C@@H]12 >= 0.5
Solution: no (0)

Exercise: hey, is composite z-score for this one >= 0.5? COc1ccc(COC(=O)NN=C2C[C@@H](O)[C@@H](O)[C@@H]3[C@@H]4C(=O)N(C[C@@H]5CCCO5)C(=O)[C@@H]4CC[C@H]23)cc1
Solution: no (0)

Exercise: Decide: is the reported value of composite z-score for O=C1C2=CC[C@H]3C(=O)N(C[C@@H]4CCCO4)C(=O)[C@H]3[C@H]2[C@H](O)[C@@H]2O[C@H]12 equal to or greater than 0.5?
Solution: no (0)

Exercise: Determine whether this compound has composite z-score no lower than 0.5: CC(CCN1CCCc2nc(C)c(C)cc21)=NOC[C@@H](C)[C@H](OCc1ccccc1)C(C)C
Solution: no (0)

Exercise: Please check the record CCOC(=O)[C@H](Cc1ccccc1)NC(=O)CCC1CC(OC(=O)NCc2ccc3c(c2)OCO3)CC2(CCCC(COC(=O)NCCc3ccc(Cl)cc3)O2)O1 (stereo not given in full) and state if its composite z-score is at or above 0.5.
Solution: yes (1)

Exercise: Assess whether reported composite z-score for C[C@@H]1CC[C@H]2C(=O)OC(CN3C(=O)c4ccccc4C3=O)CN2[C@H]1c1ccc(Br)cc1 (stereo not given in full) sits at 0.5 or higher.
Solution: no (0)

Exercise: Reported composite z-score reaches at least 0.5 for COc1cccc([C@H]2Oc3ccc(OC)cc3C(=NO[C@@H](C)c3cc(-c4c(C)cc(C)cc4C)no3)[C@@H]2O)c1 ?
Solution: no (0)

Exercise: Confirm if composite z-score reported for the compound C=CC[C@@H]1C=CC(ON=C(C)C)[C@@H](CO)O1 (stereo not given in full) is 0.5 or above.
Solution: no (0)

Exercise: Is reported composite z-score greater than or equal to 0.5 here: CO[C@@H]1COC(=O)[C@H](CCSC)NC(=O)CC=C[C@@H](C)COC(=O)[C@@H]2CCCN2C(=O)CC=C[C@H]1C
Solution: no (0)

* * *

For each record, write down the corresponding composite z-score.
# Protocol Text: small-molecule microarray binders of probe aWnt5a, primary screen, biochemical, biotinylated probe, 635/667 nm fluorescence (AID 1113);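 note: score merges 667 nm fluorescence intensity with signal-to-noise per printed feature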
# Test Settings: higher = more signal
One number for each entry.

The following compounds have reported results that may help.
CC(=O)OC[C@H]1O[C@H](C#CCC2CCCCC2)C=C[C@@H]1OC(C)=O; -0.154
CC1(C)O[C@H]2O[C@H]([C@H](O)CON=C3[C@H]4CCn5c(=O)n(-c6ccccc6)c(=O)n5[C@H]4[C@H](O)[C@@H]4O[C@H]34)[C@H](O)[C@H]2O1; -0.0748
CC(=O)OC[C@H]1O[C@H](CC=NOC(C)CN2CCCc3nc(C)c(C)cc32)C=C[C@@H]1OC(C)=O (stereo not given in full); 0.027

Would you be so kind as to report composite z-score for each listed record?
1. CON=C(C)CCN1CCc2nc(-c3ccccc3)c(-c3ccccc3)cc2C1
2. CCOC(=O)[C@H](Cc1ccccc1)NC(=O)CCC1CC(OC(=O)NCc2ccc3c(c2)OCO3)CC2(CCCC(COC(=O)NCCOc3ccccc3)O2)O1 (stereo not given in full)
3. CCOC(=O)[C@H](Cc1ccccc1)NC(=O)CCC1CC(OC(=O)NCc2cccc3ccccc23)CC2(CCCC(COC(=O)NCCOc3ccccc3)O2)O1 (stereo not given in full)
4. O=C1C2=CC[C@H]3C(=O)N(C4CCCCC4)C(=O)[C@H]3[C@H]2[C@H](O)[C@@H]2O[C@H]12
5. C=CC[C@@H]1C=CC(ON=C(C)C)[C@@H](CO)O1 (stereo not given in full)
6. CCOC(=O)[C@H](Cc1ccccc1)NC(=O)CCC1CC(OC(=O)NCCc2ccc(F)cc2)CC2(CCCC(COC(=O)NCCC(C)C)O2)O1 (stereo not given in full)
7. CC(=O)OC[C@H]1O[C@@H](ON=C(C)CCN2CCCCc3nc(C)c(C)cc32)[C@H](OC(C)=O)[C@@H](OC(C)=O)[C@@H]1OC(C)=O

Solution:
1. -0.219
2. -0.15
3. -0.176
4. -0.206
5. -0.0701
6. -0.164
7. -0.0337

Look at each compound and report its composite z-score.
1. CC(=O)OC[C@H]1O[C@H](CCON=C(C)CCN2CCCc3nc(C)c(C)cc32)C=C[C@@H]1OC(C)=O
2. C#CCCCON=C1[C@H]2CCn3c(=O)n(Cc4cc5c(cc4Cl)OCO5)c(=O)n3[C@H]2[C@H](O)[C@@H]2O[C@H]12
3. C=C(C)C(=O)OC[C@H]1CN2[C@@H](CC[C@@H](C)[C@@H]2c2ccc(Br)cc2)C(=O)O1
4. Cc1cc(C)c(-c2cc([C@H](C)ON=C[C@@H](C)[C@H](OCc3ccccc3)C(C)C)on2)c(C)c1
5. CCOC(=O)CCN1C(=O)[C@H]2[C@H]3[C@H](O)[C@H](O)CC(=NO[C@@H]4O[C@H](CO)[C@@H](O)[C@H](O)[C@H]4O)[C@H]3CC[C@H]2C1=O

Solution:
[-0.0229, -0.129, -0.178, -0.0403, -0.0286]

* * *

# Tested on: Sam68 (KHDRBS1)
# Protocol Text: Sam68 small-molecule binders, primary screen, biochemical, small-molecule microarray, 635 nm fluorescence (AID 1125);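 note: score merges 667 nm channel intensity with signal to noise over triplicate slides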
# Test Settings: small-molecule microarray binding, higher = more signal
Each entry gets F if its composite z-score stays under 0.4, and T if its composite z-score is 0.4 or above.

Some solved cases for reference:
COc1ccc(COC(=O)NN=C2C[C@@H](O)[C@@H](O)[C@@H]3[C@@H]4C(=O)N(C[C@@H]5CCCO5)C(=O)[C@@H]4CC[C@@H]23)cc1; T
C[C@@H]1CC[C@H]2C(=O)OC(CN3C(=O)c4ccccc4C3=O)CN2[C@H]1c1ccc(Br)cc1 (some centres not stated); T
O=C1[C@H]2[C@H]3[C@H](O)[C@H](O)CC(=NO[C@@H]4O[C@H](CO)[C@@H](O)[C@H](O)[C@H]4O)[C@@H]3CC[C@H]2C(=O)N1c1cccc(Oc2ccccc2)c1; F

Exercise: Check this compound for composite z-score at or above 0.4: CCN(CC)CC(O)CN1CCCCc2nc(C)c(C)cc21 (configuration not stated)
Solution: F

Exercise: Is composite z-score for CC(C)CON=C1C[C@@H](O)[C@@H](O)[C@@H]2[C@@H]3C(=O)N(Cc4ccc5c(c4)OCO5)C(=O)[C@@H]3CC[C@@H]12 at or above 0.4?
Solution: T

Exercise: Hi, just wondering whether COC(=O)[C@H](C)NC(=O)CCC1CC(OC(=O)NCc2ccc3c(c2)OCO3)CC2(CCCC(COC(=O)NCCCN3CCCC3=O)O2)O1 (some centres not stated) shows composite z-score of 0.4 or higher.
Solution: T

Exercise: # bool: composite z-score of CO[C@H]1COC(=O)CC=C[C@@H](C)COC(=O)[C@H]2CCCN2C(=O)CC=C[C@H]1C >= 0.4
Solution: T

Origin of measurements: PubChem BioAssay
